IC50 (ppm) High Salt Cgr by entry:
- System: Colletotrichum graminicola (CGR; isolate Carroll-IA-99)
- Format: cell-based
- Measurement parameters: high salt: 1/2x liquid media plus 1 mM calcium chloride, 50 mM potassium chloride; Table 1

{"columns": ["Substance", "Reported value"],
 "data": [
  ["Pp-PDF1-1F-1C5: Pp-PDF1 variant from first shuffling round (KVCTKPSKFFKGMCVRDRDCTNACRKEGLASGFCQKKGFFNFVCVCRKPC; Synthetic sequence obtained from DNA shuffling of a plant sequence.)", "10 ppm"],
  ["Pp-PDF1-3CA-1A2: Pp-PDF1 variant from third shuffling round (RVCTKPSKFYRGLCVSDRDCTHACRKEGLPTGFCQSKGFFNSVCVCKKPC; Synthetic sequence obtained from DNA shuffling of a plant sequence.)", "0.6 ppm"],
  ["Pp-PDF1-4CB-6E6: Pp-PDF1 variant from fourth shuffling round (RVCTKPSKFYKGLCISDRDCTNACRKEGLPIGFCKSKGFFNSVCVCRKPC; Synthetic sequence obtained from DNA shuffling of a plant sequence.)", "0.25 ppm"],
  ["Pp-PDF1-4CB-6E9: Pp-PDF1 variant from fourth shuffling round (RVCTKPSKFFKGLCISDRQCTNACRKEGLPTGECQPKGFFNSVCVCRKPC; Synthetic sequence obtained from DNA shuffling of a plant sequence.)", "0.25 ppm"],
  ["PP-PDF1-2CF-2D8: Pp-PDF1 variant from second shuffling round (RVCTKPSKFYKGLCVSDRDCTNACRKEGLPTGFCQSKGFFNSVCVCKKPC; Synthetic sequence obtained from DNA shuffling of a plant sequence.)", "0.6 ppm"]
]}

Request: Give IC50 (ppm) High Salt Cgr for the following substance: Pp-PDF1-3CA-1B2: Pp-PDF1 variant from third shuffling round (RVCTKPSKFYRGLCVSDRDCTHACRKEGLPIGECKSKGFFNSVCVCKKPC; Synthetic sequence obtained from DNA shuffling of a plant sequence.)
Result: 0.8 ppm

Request: Give IC50 (ppm) High Salt Cgr for the following substance: Pp-PDF1-2CA-1A6: Pp-PDF1 variant from second shuffling round (RVCKKPSKFFKGLCLSDRDCTNACRKEGLATGECQSKGFFNSVCVCRKPC; Synthetic sequence obtained from DNA shuffling of a plant sequence.)
Result: 1 ppm

Request: Give IC50 (ppm) High Salt Cgr for the following substance: Pp-PDF1-2CE-4A7: Pp-PDF1 variant from second shuffling round (RVCTKPSKFFKGLCVSDNNCTHACRTEGLPIGFCQSKGFFNSVCVCKKPC; Synthetic sequence obtained from DNA shuffling of a plant sequence.)
Result: 0.8 ppm
